Cited source for all entries: patent US20130059850A1

Entries and their measured log10(IC50) follow.
Molecular target: human FAAH (Fatty Acid Amide Hydrolase) (Homo sapiens)
Construct: The full length FAAH was subcloned into the mammalian expression vector, pcDEF.neo, using XbaI and EcoRI restriction sites; expressed in transfected cells
Assay: FAAH whole cell assay on CHO cells expressing human FAAH (human WC), AAMCA fluorescent substrate
Type: cell-based
Settings: human FAAH_CHO whole cell
Form field - Quantity: IC50; Unit: nM; Scale: log10

- Molecule: "CC(C)(C)NS(=O)(=O)c1ccc(-c2[nH]c3ncccc3c2Sc2ccc(Cl)cc2)cc1"
  Measurement label: "log10(IC50)"
  Observed measurement: 2.57
- Molecule: "Cn1ccc2cc(-c3[nH]c4ncccc4c3Sc3ccc(Cl)cc3)ccc21"
  Measurement label: "log10(IC50)"
  Observed measurement: 1.01
- Molecule: "OCCCc1[nH]c2ncccc2c1Sc1ccc(Cl)cc1"
  Measurement label: "log10(IC50)"
  Observed measurement: 2.84
- Molecule: "O=C(NCC1(CO)CCOCC1)c1[nH]c2ncccc2c1Sc1ccc(Cl)cc1"
  Measurement label: "log10(IC50)"
  Observed measurement: 3.07
- Molecule: "Cn1cccc2c(Sc3ccc(Cl)cn3)c(-c3ccc4c(c3)CNC4=O)nc1-2"
  Measurement label: "log10(IC50)"
  Observed measurement: 2.16
- Molecule: "O=C(NCCO)C1CC=C(c2[nH]c3ncccc3c2Sc2ccc(Cl)cc2)CC1 (stereo not drawn)"
  Measurement label: "log10(IC50)"
  Observed measurement: 1.82
- Molecule: "CC(=O)Nc1ccc(-c2[nH]c3ncccc3c2Sc2ccc(Cl)cc2)cc1"
  Measurement label: "log10(IC50)"
  Observed measurement: 2.57
- Molecule: "COc1ncc(-c2[nH]c3ncccc3c2Sc2ccc(Cl)cc2)c(OC)n1"
  Measurement label: "log10(IC50)"
  Observed measurement: 1.68

Return reported log10(IC50). Input molecule: NCc1ccc(-c2[nH]c3ncccc3c2Sc2ccc(Cl)cc2)cc1
2.92

* * *

Biological target: human FAAH (Fatty Acid Amide Hydrolase) (Homo sapiens, UniProt O00519)
Construct: The full length FAAH was subcloned into the mammalian expression vector, pcDEF.neo, using XbaI and EcoRI restriction sites; expressed in transfected cells
Sequence (O00519 1-579): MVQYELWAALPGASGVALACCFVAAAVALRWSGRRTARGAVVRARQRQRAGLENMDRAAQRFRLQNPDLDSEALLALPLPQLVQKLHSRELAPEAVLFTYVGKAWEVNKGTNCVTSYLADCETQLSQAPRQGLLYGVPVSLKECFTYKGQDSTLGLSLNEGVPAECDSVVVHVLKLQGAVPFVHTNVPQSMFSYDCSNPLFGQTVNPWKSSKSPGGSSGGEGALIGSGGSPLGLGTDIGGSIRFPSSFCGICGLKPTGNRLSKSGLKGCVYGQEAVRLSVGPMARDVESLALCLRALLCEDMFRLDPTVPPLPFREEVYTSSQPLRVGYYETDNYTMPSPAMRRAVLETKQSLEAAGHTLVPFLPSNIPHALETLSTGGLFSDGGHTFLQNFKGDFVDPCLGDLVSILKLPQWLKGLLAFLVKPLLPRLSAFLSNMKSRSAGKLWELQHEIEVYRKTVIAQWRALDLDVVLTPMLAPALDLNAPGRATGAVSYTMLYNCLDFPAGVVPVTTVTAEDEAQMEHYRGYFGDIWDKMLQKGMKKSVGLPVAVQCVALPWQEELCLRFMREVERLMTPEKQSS
Experiment: FAAH whole cell assay on CHO cells expressing human FAAH (human WC), AAMCA fluorescent substrate
Type: cell-based
Settings: human FAAH_CHO whole cell
Measurement label: pIC50
// scale note: pIC50 = -log10(conc_M); give the bare number

These recorded examples may help you get a feel for the data.
- Smiles repr: "Cn1cccc2c(Sc3ccc(Cl)cn3)c(-c3ccc4[nH]ncc4c3)nc1-2"
  pIC50: 7.08
- Smiles repr: "Clc1ccc(Sc2c(-c3cccs3)[nH]c3ncccc23)cc1"
  pIC50: 5.07
- Smiles repr: "OCCn1c(-c2ccc3c(c2)OCO3)c(Sc2ccc(Cl)cc2)c2cccnc21"
  pIC50: 6.94
- Smiles repr: "N#CCCCc1[nH]c2ncccc2c1Sc1ccc(Cl)cc1"
  pIC50: 5.46

Please examine the following record next.
Input Clc1ccc(Sc2c(CNC3CCOCC3)[nH]c3ncccc23)cc1 , output reported pIC50.
5.94

* * *

Parameter: IC50. Scope: all listed entries.
Biological target: human FAAH (Fatty Acid Amide Hydrolase) (Homo sapiens)
Construct: The full length FAAH was subcloned into the mammalian expression vector, pcDEF.neo, using XbaI and EcoRI restriction sites; expressed in transfected cells
Experiment: FAAH enzyme assay on CHO cell lysate expressing human FAAH (human LY), AAMCA fluorescent substrate
Type: biochemical
Details: human FAAH_CHO cell lysate
Number in nM, nothing else.

Quote human FAAH (Fatty Acid Amide Hydrolase) (Homo sapiens) IC50 for entry Cc1noc(C)c1-c1[nH]c2ncccc2c1Sc1ccc(Cl)cc1 .
208

Retrieve IC50 on human FAAH (Fatty Acid Amide Hydrolase) (Homo sapiens); query Clc1ccc(Sc2c(CNCc3ccccc3)[nH]c3ncccc23)cc1
132

Provide measured IC50 on human FAAH (Fatty Acid Amide Hydrolase) (Homo sapiens) for O=S(=O)(c1ccc(-c2[nH]c3ncccc3c2Sc2ccc(Cl)cn2)cc1)N1CCOCC1 please.
230

Would you please give the reported IC50 of N#Cc1cscc1-c1[nH]c2ncccc2c1Sc1ccc(Cl)cc1 with human FAAH (Fatty Acid Amide Hydrolase) (Homo sapiens)?
94.8

Give human FAAH (Fatty Acid Amide Hydrolase) (Homo sapiens) IC50 for the following compound: NCc1ccc(-c2[nH]c3ncccc3c2Sc2ccc(Cl)cc2)cc1
56.3

* * *

Target: human FAAH (Fatty Acid Amide Hydrolase) (Homo sapiens, UniProt O00519)
Construct: The full length FAAH was subcloned into the mammalian expression vector, pcDEF.neo, using XbaI and EcoRI restriction sites; expressed in transfected cells
Assay: FAAH whole cell assay on CHO cells expressing human FAAH (human WC), AAMCA fluorescent substrate
Assay type: cell-based
Conditions: human FAAH_CHO whole cell
Measurement label: IC50 (nM)
Dear colleague, please return just the value in nM, with no unit written.

Known results for compounds:
- Compound: "CCOC(=O)CCCc1[nH]c2ncccc2c1Sc1ccc(Cl)cc1"
  Target or system: "human FAAH (Fatty Acid Amide Hydrolase) (Homo sapiens, UniProt O00519)"
  IC50 / nM: 350
- Compound: "COCc1ccccc1-c1[nH]c2ncccc2c1Sc1ccc(Cl)cc1"
  Target or system: "human FAAH (Fatty Acid Amide Hydrolase) (Homo sapiens, UniProt O00519)"
  IC50 / nM: 1740
- Compound: "Cn1cccc2c(Sc3ccc(Cl)cc3)c([C@H]3CC[C@H](O)CC3)nc1-2"
  Target or system: "human FAAH (Fatty Acid Amide Hydrolase) (Homo sapiens, UniProt O00519)"
  IC50 / nM: 18.8
- Compound: "Cn1cc2cc(-c3nc4n(C)cccc-4c3Sc3ccc(Cl)cn3)ccc2n1"
  Target or system: "human FAAH (Fatty Acid Amide Hydrolase) (Homo sapiens, UniProt O00519)"
  IC50 / nM: 87.2
- Compound: "O=C1NCc2cc(-c3[nH]c4ncccc4c3Sc3ccc(Cl)cn3)ccc21"
  Target or system: "human FAAH (Fatty Acid Amide Hydrolase) (Homo sapiens, UniProt O00519)"
  IC50 / nM: 17.1

Consider the compound Cn1c(-c2ccc3c(c2)OCCO3)c(Sc2ccc(Cl)cc2)c2cccnc21 . State its measured IC50.
16.6

Return IC50 (reported value) for this compound: Cn1cccc2c(Sc3ccc(Cl)cc3)c(C3=CCC(O)CC3)nc1-2 (stereo not drawn)
53.9

Read off the recorded IC50 for CC(C)(O)c1ccc(-c2[nH]c3ncccc3c2Sc2ccc(Cl)cn2)cc1
73.2

For the compound CSc1ccc(-c2[nH]c3ncccc3c2Sc2ccc(Cl)cn2)cc1 , give its measured IC50 value.
35.6

* * *

Target: human FAAH (Fatty Acid Amide Hydrolase) (Homo sapiens, UniProt O00519)
Construct: The full length FAAH was subcloned into the mammalian expression vector, pcDEF.neo, using XbaI and EcoRI restriction sites; expressed in transfected cells
Assay: FAAH enzyme assay on CHO cell lysate expressing human FAAH (human LY), AAMCA fluorescent substrate
Assay type: biochemical
Conditions: human FAAH_CHO cell lysate
Description: To assist in assay development stable cell lines for human, murine and rat full length FAAH were developed. Human FAAH cDNA (Accession No: NM_001441.1) was purchased from Origene (Rockville, Md.). The full length FAAH was subcloned into the mammalian expression vector, pcDEF.neo, using XbaI and EcoRI restriction sites and used for stable cell line generation. CHO cells expressing FAAH were used to prepare either crude cell lysate or microsome fractions. […]
Measurement label: IC50 (nM)
Give just the number in nM; leave the unit off.

Consider the reported IC50 for these compounds:
- Compound: "O=C(Nc1ccc2c(c1)OCO2)c1[nH]c2ncccc2c1Sc1ccc(Cl)cc1 [Example C15]"
  Target or system: "human FAAH (Fatty Acid Amide Hydrolase) (Homo sapiens, UniProt O00519)"
  IC50 [nM]: 5.9
- Compound: "O=C1CCC(c2[nH]c3ncccc3c2Sc2ccc(Cl)cc2)CC1 [Example D7]"
  Target or system: "human FAAH (Fatty Acid Amide Hydrolase) (Homo sapiens, UniProt O00519)"
  IC50 [nM]: 14.2

# input for lookup
Input CC(C)(O)c1ccc(-c2[nH]c3ncccc3c2Sc2ccc(Cl)cc2)cc1 [Example A31] , output reported IC50.
13.2
